Hello, the source for this data is paper PMC8809517, in case you need it.

- MEASURED TARGET: T1, GFP-9S library array, motif 4 ND N98C;D124M (synthetic construct, N98C;D124M)
- T1 chain: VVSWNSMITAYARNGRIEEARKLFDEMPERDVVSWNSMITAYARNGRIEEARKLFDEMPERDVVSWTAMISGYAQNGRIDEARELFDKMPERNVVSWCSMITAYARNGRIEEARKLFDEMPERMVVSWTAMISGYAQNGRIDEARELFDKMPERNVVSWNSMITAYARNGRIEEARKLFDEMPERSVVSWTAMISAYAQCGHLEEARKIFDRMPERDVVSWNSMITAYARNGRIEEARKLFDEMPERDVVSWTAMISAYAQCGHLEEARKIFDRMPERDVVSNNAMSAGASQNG
- EXPERIMENT: high-throughput RNA pulldown from lysate on Ni-NTA beads; HRP: 50 mM Tris pH 8, 150 mM NaCl, 1 mM beta-mercaptoethanol, 50 ug/ml BSA, 3 ug/ml yeast RNA, 0.5% heparin; ITC and FP: Tris pH 8, 200 mM KCl, 5% glycerol; MST: 50 mM Tris pH 8, 200 mM NaCl, 1 mM DTT, BSA, heparin, 0.05% Tween 20
- TEST SETTINGS: tags: N-terminal His-eGFP; label: 5' Cy5
EXPERIMENTAL READOUT: Kd (nM)
Reply with just the number (in nM).

Kd reported for this binder AUUACACGUGA (ssRNA) [Cy5-rpoA] : 90.5

Kd reported for this binder AUUAGACGUGA (ssRNA) [Cy5-rpoA-G] : 113
